# experiment summary: Cloud point of dioxolane blends with 7-component surrogate diesel
# Assay type: physicochemical
# test settings: 30% dioxolane in 7-component surrogate diesel (surrogate alone −10.5 ° C.)
measurement type: Cloud point of blend (°C)
Number only, in °C; omit the unit.

Worked cases, Cloud point of blend given:
CCCCCCCC1OC(C)C(C)O1 (centres unmarked)    −11.6
CCCCCC1OC(C)C(C)O1 (centres unmarked)    −10.4
CCC(CC)C1OC(C)C(C)O1 (centres unmarked)    −10.8

[in] Determine its reported Cloud point of blend: CCCC1OC(C)C(C)O1 (centres unmarked)
[out] −13.3

[in] Return Cloud point of blend (reported value) for this molecule: CCCCC(CC)C1OC(C)C(C)O1 (centres unmarked)
[out] −12.5

* * *

# experiment summary: Lower heating value (LHV)
# Assay type: physicochemical
Here the recorded LHV (lower heating value) is given for each entry.

Worked examples follow.
CCCC1OC(C)C(C)O1 (centres unmarked) [Compound 3, 4,5-Dimethyl-2-propyl-1,3-dioxolane]    30.95 mJ/kg
CCCCC(CC)C1OC(C)C(C)O1 (centres unmarked) [Compound 2]    34.36 mJ/kg
CCCCCCCC1OC(C)C(C)O1 (centres unmarked) [Compound 5, 4,5-Dimethyl-2-heptyl-1,3-dioxolane]    34.04 mJ/kg
CCC(CC)C1OC(C)C(C)O1 (centres unmarked) [Compound 1]    32.98 mJ/kg

For the next question, use this compound.
[in] Identify measured LHV (lower heating value) corresponding to CCCCCC1OC(C)C(C)O1 (centres unmarked) [Compound 4, 4,5-Dimethyl-2-pentyl-1,3-dioxolane]
[out] 32.92 mJ/kg

* * *

Some compounds, each annotated with its measured Cloud point of blend.
# experiment summary: Cloud point of dioxolane blends with 7-component surrogate diesel
# Type: physicochemical
# test settings: 20% dioxolane in 7-component surrogate diesel (surrogate alone −10.5 ° C.)
Give the value, in units of °C, as a plain number.

Known Cloud point of blend results, listed for orientation:
CCCCCC1OC(C)C(C)O1 (centres unmarked)    −10.8
CCCCCCCC1OC(C)C(C)O1 (centres unmarked)    −10.8
CCCC1OC(C)C(C)O1 (centres unmarked)    −12
CCC(CC)C1OC(C)C(C)O1 (centres unmarked)    −10.8

Now examine the next entry.
[in] Output measured Cloud point of blend for this item: CCCCC(CC)C1OC(C)C(C)O1 (centres unmarked)
[out] −10.8

* * *

Catalogue of Density values
# experiment summary: Density (Anton Paar SVM 3001)
# Format: physicochemical
# test settings: 25° C.
Please respond with the number in g/mL and leave the unit unwritten.

Please review the following examples before continuing.
CCCCCCCC1OC(C)C(C)O1 (centres unmarked) [Compound 5, 4,5-Dimethyl-2-heptyl-1,3-dioxolane]    0.883
CCCC1OC(C)C(C)O1 (centres unmarked) [Compound 3, 4,5-Dimethyl-2-propyl-1,3-dioxolane]    0.894
CCCCC(CC)C1OC(C)C(C)O1 (centres unmarked) [Compound 2]    0.885
CCC(CC)C1OC(C)C(C)O1 (centres unmarked) [Compound 1]    0.893

Could you now consider this next compound?
[in] Look up Density of CCCCCC1OC(C)C(C)O1 (centres unmarked) [Compound 4, 4,5-Dimethyl-2-pentyl-1,3-dioxolane] and report it.
[out] 0.887

* * *

# Lookup of reported Cloud point of blend keyed by entry
# experiment summary: Cloud point of dioxolane blends with 7-component surrogate diesel
# Format: physicochemical
# test settings: 10% dioxolane in 7-component surrogate diesel (surrogate alone −10.5 ° C.)

CCC(CC)C1OC(C)C(C)O1 (centres unmarked)    −10.3 °C

[in] Give the value of Cloud point of blend reported for the following: CCCCCCCC1OC(C)C(C)O1 (centres unmarked)
[out] −9.9 °C

* * *

# experiment summary: Flash point
# Format: physicochemical
measurement type: Flash Point (°C)
Respond with the bare value in °C.

Use these answered entries as a reference point.
CCCCCCCC1OC(C)C(C)O1 (centres unmarked) [Compound 5, 4,5-Dimethyl-2-heptyl-1,3-dioxolane]    79.5
CCCCCC1OC(C)C(C)O1 (centres unmarked) [Compound 4, 4,5-Dimethyl-2-pentyl-1,3-dioxolane]    69.5
CCCC1OC(C)C(C)O1 (centres unmarked) [Compound 3, 4,5-Dimethyl-2-propyl-1,3-dioxolane]    42.5
CCC(CC)C1OC(C)C(C)O1 (centres unmarked) [Compound 1]    54.4

Here's the next entry for you.
[in] State its Flash Point: CCCCC(CC)C1OC(C)C(C)O1 (centres unmarked) [Compound 2]
[out] 58.3

* * *

# experiment summary: Boiling point
# Type: physicochemical
In this section we review reported Boiling Point values for a set of molecules.
State just the number; it will be interpreted in °C.

[in] Report Boiling Point, nothing else, for this molecule: CCCCCCCC1OC(C)C(C)O1 (centres unmarked) [Compound 5, 4,5-Dimethyl-2-heptyl-1,3-dioxolane]
[out] 188

[in] Indicate the recorded Boiling Point value for this molecule: CCC(CC)C1OC(C)C(C)O1 (centres unmarked) [Compound 1]
[out] 174

[in] Supply measured Boiling Point of CCCCC(CC)C1OC(C)C(C)O1 (centres unmarked) [Compound 2] in your reply.
[out] 184

[in] Supply reported Boiling Point belonging to this molecule: CCCC1OC(C)C(C)O1 (centres unmarked) [Compound 3, 4,5-Dimethyl-2-propyl-1,3-dioxolane]
[out] 161

[in] For the molecule CCCCCC1OC(C)C(C)O1 (centres unmarked) [Compound 4, 4,5-Dimethyl-2-pentyl-1,3-dioxolane] , give its measured Boiling Point value.
[out] 177

* * *

# experiment summary: Kinematic viscosity (Anton Paar SVM 3001)
# Format: physicochemical
# test settings: 40° C.
measurement type: Viscosity (mm^2 s^−1)
State the answer as a number, implicitly in mm^2 s^−1.

Consider the following illustrative entries.
CCC(CC)C1OC(C)C(C)O1 (centres unmarked)    1.26
CCCCC(CC)C1OC(C)C(C)O1 (centres unmarked)    1.88
CCCC1OC(C)C(C)O1 (centres unmarked)    0.94
CCCCCC1OC(C)C(C)O1 (centres unmarked)    1.49

[in] Give Viscosity for the following compound: CCCCCCCC1OC(C)C(C)O1 (centres unmarked)
[out] 2.34

* * *

# experiment summary: Cloud point of dioxolane blends with 7-component surrogate diesel
# Format: physicochemical
# test settings: 10% dioxolane in 7-component surrogate diesel (surrogate alone −10.5 ° C.)
Below: a set of entries, each annotated with reported Cloud point of blend.
Return type: number; implicit unit °C.

Examples from the recorded data:
CCCCCC1OC(C)C(C)O1 (stereo not drawn)    −10.1
CCCC1OC(C)C(C)O1 (stereo not drawn)    −11.5

// switching to the query compound
[in] Consider the compound CCCCC(CC)C1OC(C)C(C)O1 (stereo not drawn) . State its measured Cloud point of blend.
[out] −10.3
